Target: human GlyT1c transporter (Homo sapiens (Human))
Sequence (P48067 whole entry): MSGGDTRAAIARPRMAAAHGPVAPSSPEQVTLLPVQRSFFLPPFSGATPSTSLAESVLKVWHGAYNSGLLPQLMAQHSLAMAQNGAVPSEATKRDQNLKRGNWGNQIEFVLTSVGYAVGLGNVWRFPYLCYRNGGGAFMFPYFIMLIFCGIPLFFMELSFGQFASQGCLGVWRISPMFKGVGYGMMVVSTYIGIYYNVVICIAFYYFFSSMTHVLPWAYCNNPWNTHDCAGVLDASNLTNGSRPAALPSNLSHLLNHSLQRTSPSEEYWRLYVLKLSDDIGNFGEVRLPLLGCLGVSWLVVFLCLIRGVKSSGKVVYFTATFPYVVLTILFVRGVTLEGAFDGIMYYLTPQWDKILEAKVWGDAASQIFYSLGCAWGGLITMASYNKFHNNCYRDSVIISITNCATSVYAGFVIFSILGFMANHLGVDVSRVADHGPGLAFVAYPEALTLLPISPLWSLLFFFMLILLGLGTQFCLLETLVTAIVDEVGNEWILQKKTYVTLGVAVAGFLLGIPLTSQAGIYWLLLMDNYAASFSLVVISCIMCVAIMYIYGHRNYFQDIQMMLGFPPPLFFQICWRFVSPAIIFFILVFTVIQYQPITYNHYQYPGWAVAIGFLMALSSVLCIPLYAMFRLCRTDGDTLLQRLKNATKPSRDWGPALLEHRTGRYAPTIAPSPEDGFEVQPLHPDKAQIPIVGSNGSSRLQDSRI
Assay: Radioligand binding assay using recombinant CHO cell membranes expressing human GlyT1
Conditions: human GlyT1c-expressing CHO cell membranes; read-out: radioligand binding Kiapp
Text: 2. Radioligand binding assays using recombinant CHO cell membranes expressing human GlyT1: […]
pKi: −log10 of the molar value. Counter-ions that a name gives are not always drawn.

- MOLECULE: "CNC1CCc2ccc(OCCNS(=O)(=O)CC3CC3)cc2C1Cc1cccc(F)c1 (stereo not shown) [Example 247, hydrochloride]"
  TESTED_TARGET: "human GlyT1c transporter (Homo sapiens (Human))"
  pKi: "≥ 8.00"
- MOLECULE: "NC1CCc2ccc(CNS(=O)(=O)CC3CC3)cc2C1Cc1ccc(F)c(F)c1 (stereo not shown) [Example 185, hydrochloride]"
  TESTED_TARGET: "human GlyT1c transporter (Homo sapiens (Human))"
  pKi: "≥ 6.00"
- MOLECULE: "NC1CCc2ccc(OCCNS(=O)(=O)c3cccs3)cc2C1Cc1ccc(Cl)cc1Cl (stereo not shown) [Example 72, hydrochloride]"
  TESTED_TARGET: "human GlyT1c transporter (Homo sapiens (Human))"
  pKi: "≥ 5.00"
- MOLECULE: "CCCS(=O)(=O)NCCOc1ccc2c(c1)C(Cc1cccc(Cl)c1)C(N1CCCC1)CC2 (stereo not shown) [Example 323, hydrochloride]"
  TESTED_TARGET: "human GlyT1c transporter (Homo sapiens (Human))"
  pKi: "≥ 6.00"
- MOLECULE: "NC1CCc2ccc(OCCNS(=O)(=O)CC3CCC3)cc2C1Cc1ccc(Cl)c(Cl)c1 (stereo not shown) [Example 106, hydrochloride]"
  TESTED_TARGET: "human GlyT1c transporter (Homo sapiens (Human))"
  pKi: "≥ 6.00"
- MOLECULE: "CCNC1CCc2ccc(CCCNS(=O)(=O)CC3CC3)cc2C1Cc1ccc(F)c(F)c1 (stereo not shown) [Example 226, trifluoroacetate]"
  TESTED_TARGET: "human GlyT1c transporter (Homo sapiens (Human))"
  pKi: "≥ 7.00"
- MOLECULE: "Cn1cc(S(=O)(=O)NCCOc2ccc3c(c2)C(Cc2cccc(Cl)c2)C(N2CCC2)CC3)cn1 (stereo not shown) [Example 322, hydrochloride]"
  TESTED_TARGET: "human GlyT1c transporter (Homo sapiens (Human))"
  pKi: "≥ 8.00"
